FYI, the data here is from patent US10183943B2.

Target or system: OXA-15 (Pseudomonas aeruginosa, UniProt Q51574)
Construct: made in house; host or cells: E. coli
Sequence (Q51574 22-275): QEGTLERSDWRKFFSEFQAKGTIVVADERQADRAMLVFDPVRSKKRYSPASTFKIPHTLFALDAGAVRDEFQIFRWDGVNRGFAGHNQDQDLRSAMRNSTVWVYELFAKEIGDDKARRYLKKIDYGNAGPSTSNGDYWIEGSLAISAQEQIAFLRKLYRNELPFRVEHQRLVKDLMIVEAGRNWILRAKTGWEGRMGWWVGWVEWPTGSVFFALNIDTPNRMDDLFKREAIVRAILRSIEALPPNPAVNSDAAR
Experiment notes: biochemical
Can you tell me IC50 for the items I'm about to list?
API: value field is a number in nM; no unit string.

Answer with the recorded IC50 for the compound listed here: Cn1nccc1C1=CCN2CC1N(OS(=O)(=O)[O-])C2=O.[Na+] (centres unmarked) [Example 2, sulfate]
9.8

Annotate the compound O=C1N2CC=C(c3cncnc3)C(C2)N1OS(=O)(=O)[O-].[Na+] (centres unmarked) [Example 10, sulfate] with its measured IC50.
140

Entry O=C1N2CC=C(c3cccnc3)C(C2)N1OS(=O)(=O)[O-].[Na+] (centres unmarked) [Example 9] needs its IC50 filled in; supply it.
52

Recall and state the measured IC50 for O=C1N2CC=C(c3cscn3)C(C2)N1OS(=O)(=O)[O-].[Na+] (centres unmarked) [Example 31, sulfate] .
97

In one line, give reported IC50 of the entry O=C1N2CC(c3ncco3)=C[C@H](C2)N1OC(F)(F)C(=O)O (racemic) [Example 37] .
59

Determine its reported IC50: O=C1N2CC=C(c3ccns3)C(C2)N1OS(=O)(=O)[O-].[Na+] (centres unmarked) [Example 30, sulfate]
23

Name the recorded IC50 of the item O=C1N2CC(c3cnoc3)=CC(C2)N1OS(=O)(=O)[O-].[Na+] (centres unmarked) [Example 26, sulfate] in your answer.
210

Given O=C1N2CC(c3ncco3)=CC(C2)N1OS(=O)(=O)[O-].[Na+] (centres unmarked) [Example 25] , respond with its IC50.
300

* * *

Target or system: TEM-1 (Escherichia coli)
Construct: made in house; host or cells: E. coli
Sequence (P62593 24-286 limits assumed): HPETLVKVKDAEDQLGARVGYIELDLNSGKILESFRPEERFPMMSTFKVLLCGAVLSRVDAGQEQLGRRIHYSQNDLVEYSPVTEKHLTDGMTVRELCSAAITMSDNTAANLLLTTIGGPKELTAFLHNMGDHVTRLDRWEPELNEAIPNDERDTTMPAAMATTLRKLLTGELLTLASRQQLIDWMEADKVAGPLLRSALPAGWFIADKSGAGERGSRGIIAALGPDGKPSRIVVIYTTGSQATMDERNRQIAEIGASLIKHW
Experiment notes: β-lactamase inhibitory activity, determination of IC50 (nitrocefin hydrolysis)
Assay type: biochemical
Hi there, I'd appreciate the recorded pIC50 for every entry that follows.
# log scale: pIC50 equals minus log10 of the concentration in mol/L

# return recorded pIC50 for entry O=C1N2CC(c3ncco3)=C[C@H](C2)N1OS(=O)(=O)[O-].[Na+] [Example 44, sulfate]
9.16

Return value of pIC50 for input Cn1cc(C2=CCN3CC2N(OS(=O)(=O)[O-])C3=O)c(=O)n(C)c1=O.[Na+] (stereo not shown) [Example 23, sulfate] , no commentary.
8.82

For the molecule O=C1N2CC(c3nc4ccccc4s3)=CC(C2)N1OS(=O)(=O)[O-].[Na+] (stereo not shown) [Example 27, sulfate] , give its reported pIC50.
9.68

Answer with reported pIC50 of O=C1N2CC(c3cnco3)=CC(C2)N1OS(=O)(=O)[O-].[Na+] (stereo not shown)
8.64

* * *

Target or system: TEM-1 (Escherichia coli)
Construct: made in house; host or cells: E. coli
Experiment notes: β-lactamase inhibitory activity, determination of IC50 (nitrocefin hydrolysis)
Type: biochemical
Kindly state pIC50 for each of the entries shown.
// returns pIC50 (minus log10 of molar concentration), number only

State its pIC50: Cn1cnc(C2=CCN3CC2N(OS(=O)(=O)[O-])C3=O)cc1=O.[Na+] (centres unmarked) [Example 20, sulfate]
9.00

Retrieve pIC50 measured for O=C1N2CC(c3ccccn3)=CC(C2)N1OS(=O)(=O)[O-].[Na+] (centres unmarked) and print it.
8.62

Recall and state the measured pIC50 for O=C1N2CC=C(c3cnoc3)C(C2)N1OS(=O)(=O)[O-].[Na+] (centres unmarked) [Example 5, sulfate] .
7.96

Find the measured pIC50 of O=C1N2CC(c3ncco3)=C[C@H](C2)N1OC(F)(F)C(=O)O (racemic) and report it.
8.80

For O=C1N2CC(c3cccnc3)=CC(C2)N1OS(=O)(=O)[O-].[Na+] (centres unmarked) , write its pIC50.
8.74

Read the entry O=C1N2CC(c3cnoc3)=CC(C2)N1OS(=O)(=O)[O-].[Na+] (centres unmarked) [Example 26, sulfate] and write its reported pIC50.
8.32

Supply reported pIC50 belonging to this compound: O=C1N2CC=C(c3ccncc3)C(C2)N1OS(=O)(=O)[O-].[Na+] (centres unmarked)
7.92

Give recorded pIC50. NCc1ncc(C2=CCN3CC2N(OS(=O)(=O)O)C3=O)s1 (centres unmarked)
8.12
